# Test system: FAB9
# experimental-protocol: qHTS profiling for inhibitors of Plasmodium falciparum proliferation (AID 504749); further: nearly all actives have a fitted effect of over 60% in size
# test-parameters: P. falciparum in erythrocytes, SYBR Green DNA, 72 h; series mostly up to 12.8 µM
Results filed as inconclusive are left out. Calls of active or inactive are those of the source. The call rests on the fitted dose curve; in most records, active means well fitted inhibition curve with a large enough effect; inconclusive means small, poorly fitted or top-dose-only effect; inactive means flat fitted curve, though single readings scatter.
Outcomes: active, inactive

compound	answer-label
CCO[C@H]1O[C@@H]([C@H](COCc2ccccc2)OCc2ccccc2)[C@@H](OCc2ccccc2)[C@H]1O	inactive
CN(C)CCCOC1C(C(O)CO)OC2OC(C)(C)O[C@@H]21 (stereo partly drawn)	inactive
C=CC1=C(C(=O)O)N2C(=O)[C@@H](NC(=O)/C(=N\OCC(=O)O)c3csc(N)n3)[C@@H]2SC1	inactive
CCN(CC)CCOC(=O)[C@@H](Cc1cccc2ccccc12)C[C@@H]1CCCO1	inactive
C/C1=C2N=C(/C=C3N=C(/C(C)=C4\[N-]C(C)(C5N=C1C(C)(CCC(=O)NCC(C)OP(=O)([O-])O[C@H]1C(O)C(n6cnc7cc(C)c(C)cc76)O[C@@H]1CO)C5CC(N)=O)C(C)(CC(N)=O)C4CCC(N)=O)C(C)(CC(N)=O)C\3CCC(N)=O)C(C)(C)C/2CCC(N)=O.[CH2-]C1OC(n2cnc3c(N)ncnc32)C(O)C1O.[Co] (stereo partly drawn)	inactive
CC(C)=CCC[C@](C)(O)C1CC=C(C)CC1 (stereo partly drawn)	inactive
CS(=O)(=O)c1ccc([C@H](O)[C@H](CO)NC(=O)C(Cl)Cl)cc1	inactive
CC(=O)[C@]1(O)CCC2C3C=C(Cl)C4=CC(=O)C5CC5[C@@]4(C)C3CC[C@]21C (stereo partly drawn)	inactive
COCC(=O)Nc1c(I)c(C(=O)NC[C@@H](O)CO)c(I)c(C(=O)N(C)C[C@@H](O)CO)c1I	inactive
Cc1ccc2c(c1)c1c3n2CCN[C@H]3CCC1	inactive
CCCCC[C@H](O)/C=C\[C@H]1[C@H](C/C=C\CCCC(=O)O)[C@@H](O)C[C@H]1O (tested in a mixture with another compound)	inactive
CC1(C)[C@@H](OC(=O)CCC(=O)O)CC[C@@]2(C)[C@H]1CC[C@@]1(C)[C@H]2C(=O)C=C2[C@H]3C[C@](C)(C(=O)O)CC[C@]3(C)CC[C@@]21C	inactive
C[C@@]12CCC(=O)C=C1C=CC1C2CC[C@]2(C)C1CC[C@@]21CCC(=O)O1 (stereo partly drawn)	inactive
O=C(N/N=C\c1ccc([N+](=O)[O-])o1)c1ccc(O)cc1	active
COC(=O)N/N=C/C1=C[N+](=O)c2ccccc2[N+]1=O	inactive
CN1CC(=O)N=C1N	inactive
COc1cc2nc(N3CCN(C(=O)[C@@H]4COc5ccccc5O4)CC3)nc(N)c2cc1OC	inactive
C#C[C@]1(O)CC[C@@H]2[C@H]3CCC4=CCCC[C@@H]4[C@@H]3CC[C@@]21C	inactive
CN[C@H]1[C@H](O)[C@@H](O[C@@H]2[C@H](O)[C@@H](O[C@H]3OC(CN)=CC[C@H]3N)[C@@H](N)C[C@H]2N)OC[C@@]1(C)O	inactive
C[C@]12C=CC(=O)C=C1CCC1C2C(O)C[C@]2(C)C1CC[C@]2(O)C(=O)CO (stereo partly drawn)	inactive
CC(C)C1CCC(C(=O)NC(Cc2ccccc2)C(=O)O)CC1 (stereo not drawn)	inactive
COC(=O)[C@@H]1[C@@H]2C[C@H]3c4[nH]c5cc(OC)ccc5c4CCN3C[C@@H]2C[C@H](OC(=O)/C=C\c2cc(OC)c(OC)c(OC)c2)[C@H]1OC	inactive
CN[C@H]1[C@@H](O)[C@@H](NC)[C@@H]2O[C@@]3(O)C(=O)C[C@@H](C)O[C@H]3O[C@H]2[C@H]1O	inactive
CC(=O)[C@@H]1CC[C@@H]2[C@@H]3C[C@H](C)C4=CC(=O)CC[C@@]4(C)[C@H]3[C@H](O)C[C@]21C	inactive
C[C@H](N[C@@H](C)COc1ccccc1)[C@H](O)c1ccc(O)cc1	inactive
CC(=O)OCC(=O)[C@@]1(O)CC[C@@H]2[C@H]3CCC4=CC(=O)C=C[C@]4(C)[C@]3(F)[C@@H](O)C[C@@]21C	inactive
CN1CCN([C@@H](c2ccccc2)c2ccc(Cl)cc2)CC1	inactive
CC(C)NC[C@H]1CCc2cc(CO)c([N+](=O)[O-])cc2N1	inactive
CN(C)CCc1c[nH]c2ccc(CC3COC(=O)N3)cc12 (stereo not drawn)	inactive
OCC1OC(n2cnc3c(=S)nc[nH]c32)C(O)C1O (stereo not drawn)	inactive
C[C@H](CCC(=O)O)[C@H]1CC[C@@H]2[C@@H]3[C@@H](O)C[C@H]4C[C@@H](O)CC[C@@]4(C)[C@H]3CC[C@@]21C	inactive
O=C1O[C@@H]([C@@H](O)CO)[C@@H](O)[C@H]1O	inactive
CO[C@@H]1C[C@H](O[C@H]2[C@@H](C)[C@H](O[C@@H]3O[C@@H](C)C[C@@H](N(C)C)[C@@H]3OC(C)=O)[C@H](C)C[C@]3(CO3)C(=O)[C@H](C)[C@H](OC(C)=O)[C@H](C)[C@H](C)OC(=O)[C@@H]2C)O[C@H](C)[C@@H]1OC(C)=O	inactive

====

# System: CP211
# experimental-protocol: qHTS profiling for inhibitors of Plasmodium falciparum proliferation (AID 504749); further: nearly all actives have a fitted effect of over 60% in size
# test-parameters: P. falciparum in erythrocytes, SYBR Green DNA, 72 h; series mostly up to 12.8 µM
Results filed as inconclusive are left out. Calls of active or inactive are those of the source. The call rests on the fitted dose curve; in most records, active means well fitted inhibition curve with a large enough effect; inconclusive means small, poorly fitted or top-dose-only effect; inactive means flat fitted curve, though single readings scatter.

compound	outcome
O=C(OC[C@@H](O)CO)c1ccccc1Nc1ccnc2cc(Cl)ccc12	inactive
COC1CC(O[C@H]2/C(C)=C/CC3CC(C[C@]4(CCC(C)C(C5CCCCC5)O4)O3)OC(=O)[C@H]3C=C(C)/C(=N/O)C4OC/C(=C\C=C\[C@@H]2C)[C@@]43O)OC(C)C1O (some centres undefined)	inactive
C=CCOc1ccccc1OC[C@H](O)CNC(C)C	inactive
CCCCC[C@H](O)/C=C\[C@H]1[C@H](C/C=C\CCCC(=O)O)[C@@H](O)C[C@H]1O (tested in a mixture with another compound)	inactive

====

# target-or-test-system: Rap guanine nucleotide exchange factor 3 (Homo sapiens)
# experimental-protocol: Counterscreen qHTS for antagonist of cAMP-regulated guanine nucleotide exchange factor 3 (EPAC1) (AID 1645888);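 further: fluorescence loss as bound BODIPY-GDP is released from Rap1B; % of control where 0% means no effect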
# test-parameters: Rap1B-BODIPY-GDP nucleotide exchange, fluorescence; series mostly up to 154 µM
# Description: Assay Provider (PI): Xiaodong Cheng Ph.D. The University of Texas Medical Branch, […], TX MLPCN Grant: NS066510 In multi-cellular eukaryotic organisms, the effects of cAMP are transduced by two ubiquitously-expressed intracellular cAMP receptors, the classic protein kinase A/cAMP-dependent protein kinase (PKA/cAPK) and the more recently discovered exchange protein directly activated by cAMP/cAMP-regulated guanine nucleotide exchange factor (EPAC/cAMP-GEF). […]
Records with an inconclusive call do not appear. Activity calls are given as the source filed them. Calls follow the shape of the dose curve; as a rule, active = well fitted inhibition curve with a large enough effect; inconclusive = small, poorly fitted or top-dose-only effect; inactive = no such curve, though single readings can be large or run the other way.
property: activity change, negative = inhibition

In [3]: df
Out[3]:
                                    compound                  value_reported
 0  CCCC(C(=O)Nc1ccc(C)c(S(=O)(=O)N2CCOCC2)c1)c1ccccc1 (stereo not drawn)  -29.6% [at 30.8 µM] (inactive)
 1  COc1cc(/C=N/NC(=O)c2ccc3c(c2)OCCO3)cc(Br)c1O                        inactive
 2  COc1ccc(OC)c(/C=C2\N=C(c3ccccc3)OC2=O)c1                        inactive
 3  COc1ccccc1NC(=O)c1sc2nc(C)c(C(=O)Nc3ccc(C)cc3C)c(-c3ccco3)c2c1N                        inactive
 4          NC(=O)COC(=O)/C=C/c1ccc2ccccc2n1                        inactive
 5              CCN(CC)c1ccc2oc(=O)c(C)nc2c1                        inactive
 6  Fc1ccc(C(Nc2ccccn2)c2c[nH]c3ccccc23)cc1 (stereo not drawn)  -2.83% [at 30.8 µM] (inactive)
 7  O=C(COC(=O)c1ccc(O)cc1O)Nc1nnc(-c2ccccc2)o1                        inactive
 8       COC(=O)c1cc2sccc2n1Cc1c(C)cc(C)cc1C                        inactive
 9  COC(=O)c1cn(C(=O)c2cc(OC)c(OC)c(OC)c2)c2ccccc12                        inactive
10    CCN1C(=O)/C(=C/c2ccc(N3CCCC3)cc2)NC1=S   97.9% [at 30.8 µM] (inactive)
11  O=C(c1cccc(-n2cccc2)c1)N1CCN(S(=O)(=O)c2ccccc2)CC1                        inactive
12  O=c1c2ccccc2nc(/C=C/c2cccnc2)n1CCc1ccccc1                        inactive
13  COc1ccc(-c2cc(C(F)F)n3ncc(C(=O)N4CCc5ccccc54)c3n2)cc1                        inactive
14  Cc1[nH]c2ccccc2c1C(c1ccccc1)c1cccs1 (stereo not drawn)                        inactive
15            Oc1ccc(-c2csc(Nc3cccnc3)n2)cc1  -8.51% [at 30.8 µM] (inactive)
16  OCc1cccc(-c2cnc3c(Nc4cccc(OC(F)(F)C(F)F)c4)nccn23)c1    9.1% [at 30.8 µM] (inactive)
17    O=C(C[n+]1cc(Br)cc2ccccc21)c1ccc(F)cc1   9.18% [at 30.8 µM] (inactive)
18  O=C(O)c1ccc(/C=N/N2CCN(Cc3cccc4ccccc34)CC2)cc1  -6.71% [at 30.8 µM] (inactive)
19  COC(=O)c1scc(C#N)c1N/N=C(\C#N)S(=O)(=O)c1ccc(Cl)cc1                        inactive
20  Cc1cccc(N2CCN(c3ccc(C(=O)O)cc3NC(=O)c3ccccc3F)CC2C)c1 (stereo not drawn)                        inactive
21    COc1ccc(OCc2nc3ccccc3n2Cc2ccccc2Cl)cc1                        inactive
22             COc1ccc(C=C2SC(=O)NC2=O)cc1OC   12.5% [at 30.8 µM] (inactive)
